Tested on: Escherichia coli TOP10
Assay: shrunken log2 fold change of peptide-encoding DNA abundance (4.5 h post-induction vs induction); higher = less antimicrobial activity (less host growth inhibition)
Details: time post-induction: 4.5 h; library: site-saturation at positions 5, 18, 19, 20
shrunken log2 fold change below -0.005 gives F; shrunken log2 fold change at or above it gives T.

Incoming: # bool: shrunken log2 fold change of RRIRLRPPRLPRPRPRPEEYPRP >= -0.005
Outgoing: T

Incoming: # bool: shrunken log2 fold change of RRIRDRPPRLPRPRPRPHKNPRP >= -0.005
Outgoing: F

---

Tested on: Escherichia coli TOP10
Assay: shrunken log2 fold change of peptide-encoding DNA abundance (4.5 h post-induction vs induction); higher = less antimicrobial activity (less host growth inhibition)
Settings: time post-induction: 4.5 h; library: site-saturation at positions 5, 18, 19, 20
List of shrunken log2 fold change values.
Number, no unit, nothing else.

Recorded shrunken log2 fold change, per entry:
Sequence content	Obs value
RRIRSRPPRLPRPRPRPTMMPRP	-0.253
RRIRGRPPRLPRPRPRPLLCPRP	1.17
RRIRVRPPRLPRPRPRPTYCPRP	-0.327

Incoming: Requested field: shrunken log2 fold change. Item: RRIRTRPPRLPRPRPRPQEVPRP
Outgoing: -0.0102

Incoming: Requested field: shrunken log2 fold change. Item: RRIRDRPPRLPRPRPRPNETPRP
Outgoing: -0.023

Incoming: Requested field: shrunken log2 fold change. Item: RRIRHRPPRLPRPRPRPGCYPRP
Outgoing: 0.0554

Incoming: Requested field: shrunken log2 fold change. Item: RRIRIRPPRLPRPRPRPIHYPRP
Outgoing: -0.791

Incoming: Requested field: shrunken log2 fold change. Item: RRIRERPPRLPRPRPRPIKQPRP
Outgoing: -0.00681

---

System: Escherichia coli TOP10
Experiment: shrunken log2 fold change of peptide-encoding DNA abundance (4.5 h post-induction vs induction); higher = less antimicrobial activity (less host growth inhibition)
Conditions: time post-induction: 4.5 h; library: site-saturation at positions 5, 18, 19, 20
List of shrunken log2 fold change values.
Number, no unit, nothing else.

Recorded shrunken log2 fold change, per entry:
Sequence content	shrunken log2 fold change
RRIRERPPRLPRPRPRPNMDPRP	-0.209
RRIRPRPPRLPRPRPRPNNIPRP	-0.848
RRIRMRPPRLPRPRPRPLFHPRP	-0.0668

Incoming: Requested field: shrunken log2 fold change. Item: RRIRERPPRLPRPRPRPNKMPRP
Outgoing: -0.324

Incoming: Requested field: shrunken log2 fold change. Item: RRIRTRPPRLPRPRPRPLAQPRP
Outgoing: 0.143

Incoming: Requested field: shrunken log2 fold change. Item: RRIRHRPPRLPRPRPRPCFFPRP
Outgoing: -0.193

Incoming: Requested field: shrunken log2 fold change. Item: RRIRSRPPRLPRPRPRPMMRPRP
Outgoing: 0.836

Incoming: Requested field: shrunken log2 fold change. Item: RRIRWRPPRLPRPRPRPHHTPRP
Outgoing: -0.313

---

List of shrunken log2 fold change values.
System: Escherichia coli TOP10
Assay: shrunken log2 fold change of peptide-encoding DNA abundance (4.5 h post-induction vs induction); higher = less antimicrobial activity (less host growth inhibition)
Details: time post-induction: 4.5 h; library: site-saturation at positions 5, 18, 19, 20
Number, no unit, nothing else.

Recorded shrunken log2 fold change, per entry:
Sequence content	Target or test system	shrunken log2 fold change
RRIRRRPPRLPRPRPRPNFNPRP	Escherichia coli TOP10	-0.0741
RRIRARPPRLPRPRPRPISAPRP	Escherichia coli TOP10	0.294
RRIRWRPPRLPRPRPRPNPGPRP	Escherichia coli TOP10	0.108

Incoming: shrunken log2 fold change of RRIRGRPPRLPRPRPRPDPLPRP on Escherichia coli TOP10?
Outgoing: 0.072

Incoming: shrunken log2 fold change of RRIRVRPPRLPRPRPRPVLGPRP on Escherichia coli TOP10?
Outgoing: 0.299

Incoming: shrunken log2 fold change of RRIRVRPPRLPRPRPRPKDCPRP on Escherichia coli TOP10?
Outgoing: -0.107

---

System: Escherichia coli TOP10
Assay: shrunken log2 fold change of peptide-encoding DNA abundance (4.5 h post-induction vs induction); higher = less antimicrobial activity (less host growth inhibition)
Conditions: time post-induction: 4.5 h; library: site-saturation at positions 5, 18, 19, 20
List of shrunken log2 fold change values.
Number, no unit, nothing else.

Recorded shrunken log2 fold change, per entry:
Sequence content	shrunken log2 fold change
RRIRQRPPRLPRPRPRPGSYPRP	-0.2
RRIRCRPPRLPRPRPRPQYMPRP	-0.784
RRIRHRPPRLPRPRPRPNTKPRP	-0.0741
RRIRHRPPRLPRPRPRPWHTPRP	-0.566
RRIRQRPPRLPRPRPRPCSFPRP	-0.0439
RRIRCRPPRLPRPRPRPFMGPRP	-0.585
RRIRQRPPRLPRPRPRPVSWPRP	1.47
RRIRTRPPRLPRPRPRPDFMPRP	-0.15

Incoming: Requested field: shrunken log2 fold change. Item: RRIRQRPPRLPRPRPRPCQRPRP
Outgoing: -0.0113

Incoming: Requested field: shrunken log2 fold change. Item: RRIRLRPPRLPRPRPRPGYLPRP
Outgoing: -0.282

Incoming: Requested field: shrunken log2 fold change. Item: RRIRSRPPRLPRPRPRPVVWPRP
Outgoing: 0.462

---

Test system: Escherichia coli TOP10
Experiment: shrunken log2 fold change of peptide-encoding DNA abundance (4.5 h post-induction vs induction); higher = less antimicrobial activity (less host growth inhibition)
Conditions: time post-induction: 4.5 h; library: site-saturation at positions 5, 18, 19, 20
shrunken log2 fold change below 0.01 gives NOT MET; shrunken log2 fold change at or above it gives MET.

Please review the entries below; each comes with its answer.
Sequence content	Class label
RRIRDRPPRLPRPRPRPQKSPRP	NOT MET
RRIRVRPPRLPRPRPRPPHTPRP	MET
RRIRPRPPRLPRPRPRPPRIPRP	MET
RRIRNRPPRLPRPRPRPLQHPRP	MET
RRIRFRPPRLPRPRPRPQGVPRP	MET
RRIRCRPPRLPRPRPRPQQPPRP	MET
RRIRQRPPRLPRPRPRPFWTPRP	NOT MET
RRIRSRPPRLPRPRPRPEIAPRP	NOT MET
RRIRWRPPRLPRPRPRPRGRPRP	MET
RRIRSRPPRLPRPRPRPSKPPRP	NOT MET

Incoming: # bool: shrunken log2 fold change of RRIRARPPRLPRPRPRPYKYPRP >= 0.01
Outgoing: NOT MET

Incoming: # bool: shrunken log2 fold change of RRIRYRPPRLPRPRPRPTLPPRP >= 0.01
Outgoing: NOT MET

Incoming: # bool: shrunken log2 fold change of RRIRHRPPRLPRPRPRPHFCPRP >= 0.01
Outgoing: NOT MET

Incoming: # bool: shrunken log2 fold change of RRIRSRPPRLPRPRPRPAAFPRP >= 0.01
Outgoing: MET

Incoming: # bool: shrunken log2 fold change of RRIRFRPPRLPRPRPRPWFSPRP >= 0.01
Outgoing: NOT MET

Incoming: # bool: shrunken log2 fold change of RRIRKRPPRLPRPRPRPRPQPRP >= 0.01
Outgoing: MET

Incoming: # bool: shrunken log2 fold change of RRIRIRPPRLPRPRPRPVCSPRP >= 0.01
Outgoing: NOT MET

Incoming: # bool: shrunken log2 fold change of RRIRYRPPRLPRPRPRPHCLPRP >= 0.01
Outgoing: NOT MET

Incoming: # bool: shrunken log2 fold change of RRIRWRPPRLPRPRPRPMSDPRP >= 0.01
Outgoing: MET

Incoming: # bool: shrunken log2 fold change of RRIRSRPPRLPRPRPRPIRHPRP >= 0.01
Outgoing: NOT MET

Incoming: # bool: shrunken log2 fold change of RRIRDRPPRLPRPRPRPVLWPRP >= 0.01
Outgoing: MET

---

Test system: Escherichia coli TOP10
Assay: shrunken log2 fold change of peptide-encoding DNA abundance (4.5 h post-induction vs induction); higher = less antimicrobial activity (less host growth inhibition)
Settings: time post-induction: 4.5 h; library: site-saturation at positions 5, 18, 19, 20
Our labelling divides records by shrunken log2 fold change into ranges: low: < -0.05; intermediate: ≥ -0.05 and < 0.1; high: ≥ 0.1

Sequence content	Class label
RRIRWRPPRLPRPRPRPQKTPRP	high
RRIRFRPPRLPRPRPRPLLWPRP	high
RRIRMRPPRLPRPRPRPQTGPRP	low
RRIRVRPPRLPRPRPRPINCPRP	low
RRIRDRPPRLPRPRPRPYNGPRP	low
RRIRCRPPRLPRPRPRPLPRPRP	high

Consider now this further sequence.
Incoming: Categorize the following entry: RRIRNRPPRLPRPRPRPMPKPRP
Outgoing: intermediate

---

System: Escherichia coli TOP10;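 further: peptides expressed intracellularly from a pBAD plasmid library in pooled LB shake-flask culture, induced with 0.3% L-arabinose, DNA abundance read by NGS, three biological replicates, DESeq2 with apeglm shrinkage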
Assay: shrunken log2 fold change of peptide-encoding DNA abundance (4.5 h post-induction vs induction); higher = less antimicrobial activity (less host growth inhibition)
Settings: time post-induction: 4.5 h; library: site-saturation at positions 5, 18, 19, 20
Observed property: shrunken log2 fold change
Number, no unit, nothing else.

Sequence content	Target or test system	shrunken log2 fold change
RRIRRRPPRLPRPRPRPRVKPRP	Escherichia coli TOP10	0.699
RRIRNRPPRLPRPRPRPVWYPRP	Escherichia coli TOP10	-0.326
RRIRYRPPRLPRPRPRPLFHPRP	Escherichia coli TOP10	-0.818
RRIRGRPPRLPRPRPRPWMTPRP	Escherichia coli TOP10	0.034
RRIRSRPPRLPRPRPRPDFEPRP	Escherichia coli TOP10	-0.0501
RRIRRRPPRLPRPRPRPPSFPRP	Escherichia coli TOP10	0.251
RRIRLRPPRLPRPRPRPNQRPRP	Escherichia coli TOP10	0.00956
RRIRLRPPRLPRPRPRPNNEPRP	Escherichia coli TOP10	-0.276
RRIRGRPPRLPRPRPRPTQTPRP	Escherichia coli TOP10	0.775
RRIRRRPPRLPRPRPRPHCSPRP	Escherichia coli TOP10	-0.0453

Incoming: Requested field: shrunken log2 fold change. Item: RRIRYRPPRLPRPRPRPDDAPRP
Outgoing: -0.199

Incoming: Requested field: shrunken log2 fold change. Item: RRIRGRPPRLPRPRPRPKGAPRP
Outgoing: 1.06

Incoming: Requested field: shrunken log2 fold change. Item: RRIRCRPPRLPRPRPRPMLSPRP
Outgoing: -0.202

Incoming: Requested field: shrunken log2 fold change. Item: RRIRYRPPRLPRPRPRPECQPRP
Outgoing: 0.0129

Incoming: Requested field: shrunken log2 fold change. Item: RRIRERPPRLPRPRPRPFYRPRP
Outgoing: -0.111
